# MEASUREMENT_TARGET: CDK6/cyclin D1 (Homo sapiens (Human))
# ASSAY_INFO: Biochemical kinase inhibition test, CDK6/cyclin D1 (similar method)
# CONDITION_LABEL: CDK6/cyclin D1; 10 μM ATP; read-out: CDK6/Cyelin D1 IC50
# IC50 per entry

# annotated cases, reported IC50 shown
COMPOUND: CCN1CCN(c2ccc(Nc3ncc4ccc5ncc(C(C)C)n5c4n3)nc2)CC1 [Compound I-5]
IC50: < 1 nM
--
COMPOUND: Cc1cc(Nc2ncc3ccc4ncc(C(C)C)n4c3n2)ncc1N1CCOCC1 [Compound I-18]
IC50: 1 to 5 nM
--
COMPOUND: CCN1CCN(c2cnc(Nc3ncc4ccc5ncc(C(C)C)n5c4n3)cc2C)CC1 [Compound I-6]
IC50: 5 to 10 nM
--
COMPOUND: CC(C)c1cnc2ccc3cnc(Nc4ccc(N5CCOCC5)cn4)nc3n12 [Compound I-17]
IC50: < 1 nM
--
COMPOUND: CC(C)c1cnc2ccc3cnc(Nc4ccc(N5CCN[C@@H](C)C5)cn4)nc3n12 [Compound I-10]
IC50: 5 to 10 nM
--
COMPOUND: CC(C)c1cnc2ccc3cnc(Nc4ccc(N5CCCNCC5)cn4)nc3n12 [Compound I-15]
IC50: 20 to 50 nM

Given the compound Fc1cc(Nc2ncc3ccc4ncc(C5CCCC5)n4c3n2)ncc1N1CCNCC1 [Compound I-36] , what is its reported IC50?
10 to 20 nM

====

# MEASUREMENT_TARGET: CDK6/cyclin D1 (Homo sapiens (Human))
# ASSAY_INFO: Biochemical kinase inhibition test, CDK6/cyclin D1 (similar method)
# CONDITION_LABEL: CDK6/cyclin D1; 10 μM ATP; read-out: CDK6/Cyelin D1 IC50
# IC50 per entry

# annotated cases, reported IC50 shown
COMPOUND: CC(C)c1cnc2ccc3cnc(Nc4ccc(N5CCC6(CC5)CNC6)cn4)nc3n12 [Compound I-25]
IC50: 20 to 50 nM
--
COMPOUND: CCN1CCN(c2cnc(Nc3ncc4ccc5ncc(C6CCCC6)n5c4n3)cc2C)CC1 [Compound I-32]
IC50: 5 to 10 nM
--
COMPOUND: C[C@@H]1CN(c2ccc(Nc3ncc4ccc5ncc(C6CCCC6)n5c4n3)nc2)C[C@H](C)N1 [Compound I-35]
IC50: 5 to 10 nM
--
COMPOUND: CC(C)c1cnc2ccc3cnc(Nc4ccc(N5C[C@@H](C)N[C@@H](C)C5)cn4)nc3n12 [Compound I-12]
IC50: 5 to 10 nM
--
COMPOUND: Cl.c1cc(Nc2ncc3ccc4ncc(C5CCCC5)n4c3n2)ncc1N1CCNCC1 [Compound I-31]
IC50: < 1 nM

Given the compound COc1cc(OCCN(C)C)ccc1Nc1ncc2ccc3ncc(C(C)C)n3c2n1 [Compound I-28] , what is its reported IC50?
50 to 100 nM

Please give the result for Cc1nc(Nc2ncc3ccc4ncc(C5CCCC5)n4c3n2)ccc1N1CCNCC1.Cl [Compound I-34] too.
< 1 nM

Please give the result for COc1ccc2cc(Nc3ncc4ccc5ncc(C(C)C)n5c4n3)ccc2n1 [Compound I-30] too.
50 to 100 nM

Please give the result for Cc1cc(Nc2ncc3ccc4ncc(C5CCCC5)n4c3n2)ncc1N1CCOCC1 [Compound I-38] too.
1 to 5 nM

Please give the result for Cc1cc(Nc2ncc3ccc4ncc(C(C)C)n4c3n2)ncc1N1CCN(C)CC1 [Compound I-3] too.
5 to 10 nM

Please give the result for CC(C)c1cnc2ccc3cnc(Nc4ccc(N5CCC6(CNC6)C5)cn4)nc3n12 [Compound I-23] too.
20 to 50 nM

Please give the result for CC(C)c1cnc2ccc3cnc(Nc4ccc(N5CCN(C)CC5)cn4)nc3n12 [Compound I-2] too.
< 1 nM

Please give the result for CCN1CCN(c2ccc(Nc3ncc4ccc5ncc(C(C)C)n5c4n3)nc2C)CC1 [Compound I-7] too.
5 to 10 nM

Please give the result for Cc1nc(Nc2ncc3ccc4ncc(C(C)C)n4c3n2)ccc1N1CCN(C)CC1 [Compound I-4] too.
5 to 10 nM

Please give the result for C[C@@H]1CN(c2ccc(Nc3ncc4ccc5ncc(C6CCCC6)n5c4n3)nc2)C[C@H](C)O1 [Compound I-39] too.
10 to 20 nM

Please give the result for CC(C)c1cnc2ccc3cnc(Nc4ccc(N5CCCCC5)cn4)nc3n12 [Compound I-16] too.
20 to 50 nM

Please give the result for Cc1cc(Nc2ncc3ccc4ncc(C(C)C)n4c3n2)ncc1N1CCNCC1.Cl [Compound I-8] too.
< 1 nM

Please give the result for CC(C)c1cnc2ccc3cnc(Nc4cc(F)c(N5CCNCC5)cn4)nc3n12.Cl [Compound I-13] too.
5 to 10 nM

====

# IC50 per entry
# MEASUREMENT_TARGET: CDK4/Cyclin D1 (Homo sapiens (Human), UniProt P11802)
# Sequence (P11802 whole entry): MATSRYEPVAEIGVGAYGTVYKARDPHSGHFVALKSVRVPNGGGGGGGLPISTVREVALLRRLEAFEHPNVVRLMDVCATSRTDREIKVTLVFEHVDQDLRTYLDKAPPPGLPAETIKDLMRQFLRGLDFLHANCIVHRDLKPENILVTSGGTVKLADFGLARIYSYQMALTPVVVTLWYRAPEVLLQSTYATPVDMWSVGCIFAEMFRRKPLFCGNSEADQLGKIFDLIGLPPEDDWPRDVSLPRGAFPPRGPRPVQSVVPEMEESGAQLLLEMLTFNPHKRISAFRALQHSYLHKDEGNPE
# Sequence (P24385 whole entry partner): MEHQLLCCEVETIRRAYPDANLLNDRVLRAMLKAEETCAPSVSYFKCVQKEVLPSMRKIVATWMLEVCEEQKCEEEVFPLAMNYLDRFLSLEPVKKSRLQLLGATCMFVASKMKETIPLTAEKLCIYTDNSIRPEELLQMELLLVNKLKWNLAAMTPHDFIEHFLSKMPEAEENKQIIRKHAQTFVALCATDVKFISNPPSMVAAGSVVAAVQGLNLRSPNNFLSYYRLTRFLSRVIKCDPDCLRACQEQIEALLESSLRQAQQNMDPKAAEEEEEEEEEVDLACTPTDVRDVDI
# ASSAY_INFO: Biochemical kinase inhibition test, CDK4/Cyclin D1 (32P-ATP, Rb substrate)
# CONDITION_LABEL: recombinant CDK4/Cyclin D1; 10 μM ATP; read-out: CDK4/Cydin D1 IC50

# annotated cases, reported IC50 shown
TEST_SMILES: CC(C)c1cnc2ccc3cnc(Nc4ccc(N5CCN(C)CC5)cn4)nc3n12
IC50: < 0.001 µM
//
TEST_SMILES: CCN1CCN(c2cnc(Nc3ncc4ccc5ncc(C(C)C)n5c4n3)cc2C)CC1
IC50: 0.01 to 0.02 µM
//
TEST_SMILES: CC(C)c1cnc2ccc3cnc(Nc4ccc(N5CCCNCC5)cn4)nc3n12
IC50: 0.02 to 0.05 µM

Form field: IC50 recorded for "CC(C)c1cnc2ccc3cnc(Nc4cc(F)c(N5CCNCC5)cn4)nc3n12.Cl" with CDK4/Cyclin D1 (Homo sapiens (Human), UniProt P11802) (enter value)
0.01 to 0.02 µM

====

# MEASUREMENT_TARGET: CDK6/cyclin D1 (Homo sapiens (Human), UniProt Q00534)
# Sequence (Q00534 whole entry, species assumed, one chain of several): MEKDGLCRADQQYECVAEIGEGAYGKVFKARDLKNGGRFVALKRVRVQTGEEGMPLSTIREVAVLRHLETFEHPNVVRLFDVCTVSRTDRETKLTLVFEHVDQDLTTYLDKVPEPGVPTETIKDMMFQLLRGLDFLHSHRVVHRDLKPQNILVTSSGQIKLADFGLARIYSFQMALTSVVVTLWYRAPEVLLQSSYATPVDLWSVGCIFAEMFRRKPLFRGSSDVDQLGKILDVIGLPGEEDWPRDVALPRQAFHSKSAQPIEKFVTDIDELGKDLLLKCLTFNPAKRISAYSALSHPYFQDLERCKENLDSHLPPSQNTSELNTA
# ASSAY_INFO: Biochemical kinase inhibition test, CDK6/cyclin D1 (similar method)
# CONDITION_LABEL: enzyme inhibitory activity, CDK6/cyclin D1 vs CDK4/cyclin D1
EXPERIMENTAL_READOUT: selectivity for CDK6/cyclin D1 relative to CDK4/cyclin D1

TEST_SMILES: C[C@@H]1CN(c2ccc(Nc3ncc4ccc5ncc(C6CCCC6)n5c4n3)nc2)C[C@H](C)O1
READOUT_VALUE: 2-3 times
//
TEST_SMILES: CC(C)c1cnc2ccc3cnc(Nc4ccc(N5CCNCC5)c(F)n4)nc3n12.Cl
READOUT_VALUE: 2-3 times
//
TEST_SMILES: CC(C)c1cnc2ccc3cnc(Nc4ccc(N5CCNCC5)cn4)nc3n12.Cl
READOUT_VALUE: more than 5 times
//
TEST_SMILES: Cc1nc(Nc2ncc3ccc4ncc(C5CCCC5)n4c3n2)ccc1N1CCNCC1.Cl
READOUT_VALUE: more than 10 times
//
TEST_SMILES: CC(C)c1cnc2ccc3cnc(Nc4ccc(N5CCOCC5)cn4)nc3n12
READOUT_VALUE: more than 10 times

Given the compound "Cc1cc(Nc2ncc3ccc4ncc(C5CCCC5)n4c3n2)ncc1N1CCOCC1" , what is its reported selectivity for CDK6/cyclin D1 relative to CDK4/cyclin D1?
about 4 times

Please give the result for "Cc1nc(Nc2ncc3ccc4ncc(C(C)C)n4c3n2)ccc1N1CCNCC1.Cl" too.
more than 10 times

Please give the result for "CCN1CCN(c2cnc(Nc3ncc4ccc5ncc(C(C)C)n5c4n3)cc2C)CC1" too.
2-3 times

Please give the result for "CCN1CCN(c2ccc(Nc3ncc4ccc5ncc(C(C)C)n5c4n3)nc2C)CC1" too.
2-3 times

Please give the result for "Cc1cc(Nc2ncc3ccc4ncc(C5CCCC5)n4c3n2)ncc1N1CCNCC1.Cl" too.
more than 10 times

Please give the result for "Cc1cc(Nc2ncc3ccc4ncc(C(C)C)n4c3n2)ncc1N1CCOCC1" too.
about 4 times

Please give the result for "CC(C)c1cnc2ccc3cnc(Nc4cc(F)c(N5CCNCC5)cn4)nc3n12.Cl" too.
2-3 times

Please give the result for "Cl.c1cc(Nc2ncc3ccc4ncc(C5CCCC5)n4c3n2)ncc1N1CCNCC1" too.
more than 5 times

Please give the result for "CC(C)c1cnc2ccc3cnc(Nc4ccc(N5C[C@@H](C)O[C@@H](C)C5)cn4)nc3n12" too.
2-3 times

Please give the result for "Cc1cc(Nc2ncc3ccc4ncc(C(C)C)n4c3n2)ncc1N1CCNCC1.Cl" too.
more than 5 times

====

# MEASUREMENT_TARGET: CDK4/Cyclin D1 (Homo sapiens (Human), UniProt P11802)
# ASSAY_INFO: Biochemical kinase inhibition test, CDK4/Cyclin D1 (32P-ATP, Rb substrate)
# CONDITION_LABEL: recombinant CDK4/Cyclin D1; 10 μM ATP; read-out: CDK4/Cydin D1 IC50
EXPERIMENTAL_READOUT: IC50

# annotated cases, reported IC50 shown
TEST_SMILES: Cc1nc(Nc2ncc3ccc4ncc(C(C)C)n4c3n2)ccc1N1CCN(C)CC1
IC50: 5 to 10 nM

TEST_SMILES: CCN1CCN(c2cnc(Nc3ncc4ccc5ncc(C6CCCC6)n5c4n3)cc2C)CC1
IC50: 5 to 10 nM

TEST_SMILES: Fc1cc(Nc2ncc3ccc4ncc(C5CCCC5)n4c3n2)ncc1N1CCNCC1
IC50: 10 to 20 nM

TEST_SMILES: CCN1CCN(c2ccc(Nc3ncc4ccc5ncc(C(C)C)n5c4n3)nc2C)CC1
IC50: 5 to 10 nM

Given the molecule "Cc1cc(Nc2ncc3ccc4ncc(C(C)C)n4c3n2)ncc1N1CCNCC1.Cl" , what is its reported IC50?
1 to 5 nM

Please give the result for "Fc1nc(Nc2ncc3ccc4ncc(C5CCCC5)n4c3n2)ccc1N1CCNCC1" too.
5 to 10 nM

Please give the result for "Cc1nc(Nc2ncc3ccc4ncc(C5CCCC5)n4c3n2)ccc1N1CCNCC1.Cl" too.
5 to 10 nM

Please give the result for "C[C@@H]1CN(c2ccc(Nc3ncc4ccc5ncc(C6CCCC6)n5c4n3)nc2)C[C@H](C)O1" too.
20 to 50 nM

Please give the result for "CC(C)c1cnc2ccc3cnc(Nc4ccc(N5C[C@@H](C)N[C@@H](C)C5)cn4)nc3n12" too.
5 to 10 nM

Please give the result for "Cc1cc(Nc2ncc3ccc4ncc(C(C)C)n4c3n2)ncc1N1CCOCC1" too.
10 to 20 nM

Please give the result for "COc1cc(OCCN(C)C)ccc1Nc1ncc2ccc3ncc(C(C)C)n3c2n1" too.
50 to 100 nM

Please give the result for "Cc1cc(Nc2ncc3ccc4ncc(C(C)C)n4c3n2)ncc1N1CCN(C)CC1" too.
5 to 10 nM

Please give the result for "Cc1nc(Nc2ncc3ccc4ncc(C(C)C)n4c3n2)ccc1N1CCNCC1.Cl" too.
5 to 10 nM

Please give the result for "Cc1cc(Nc2ncc3ccc4ncc(C5CCCC5)n4c3n2)ncc1N1CCNCC1.Cl" too.
5 to 10 nM
